# Test system: Listeria monocytogenes 11994
# PROCEDURE SUMMARY: Viable count of L. monocytogenes in TSB with trans-anethole, fenchone, estragole, methyl paraben and combinations (Experimental Procedure 2)
# Type: cell-based
# REPORTED CONDITIONS: 8 hrs, 37° C., preservatives at 0.1%
// reported log10 of the mean count ± 1 SEM per item

COMPOUND: COC(=O)c1ccc(O)cc1 [MP, methyl paraben]
SYSTEM: Listeria monocytogenes 11994
UNITS SYMBOL: log10 cfu/ml
log10 of the mean count ± 1 SEM: 7.7

COMPOUND: C/C=C/c1ccc(OC)cc1 [Trans-anethole]
SYSTEM: Listeria monocytogenes 11994
UNITS SYMBOL: log10 cfu/ml
log10 of the mean count ± 1 SEM: 6.7
